Kindly state EC50 for each of the entries shown.
Target: GLP-1R (Homo sapiens)
Assay: GLP-1R Activation - cAMP Assay
Assay type: cell-based
Settings: cAMP increase in CHO cells stably expressing GLP-1R; each compound run on one of the two cAMP assays (Assay 1 or Assay 2, not specified)
Use nM as the unit, but write only the number.

Item under review: Cc1cc(Cc2nc3c(F)cc(C(=O)O)cc3n2[C@@H]2COCC2(C)C)c(Cl)cc1-c1ccc(F)c(OCc2ccc(C#N)cc2)n1 . Reported EC50?
0.312

Could you share which EC50 value was measured for COC[C@]1(C)COCC1n1c(Cc2cc(F)c(-c3cccc(OCc4ccc(Cl)cc4F)n3)cc2F)nc2ccc(C(=O)O)cc21 (stereo in doubt) ?
0.727

Form field: reported EC50 of N#Cc1ccc(COc2cccc(-c3cc(F)c(Cc4nc5ccc(C(=O)O)cc5n4[C@H]4COCC45CC5)cc3F)n2)c(F)c1 (single isomer, unassigned)
0.578

What does the record list as EC50 for CC1(C)COCCC1n1c(Cc2cc(F)c(-c3cccc(OCc4ccc(C#N)cc4F)n3)cc2F)nc2ccc(C(=O)O)cc21 (stereo not shown) ?
0.62

Could you share which EC50 value was measured for CC1(C)COC[C@H]1n1c(Cc2cc(F)c(-c3cc(C(F)F)cc(OCc4ccc(Cl)cc4F)n3)cc2F)nc2ccc(C(=O)O)cc21 ?
1.39

I would be grateful if you could share the reported EC50 for CC1(C)COC[C@H]1n1c(Cc2cc(F)c(-c3cccc(OCc4cc(F)c(F)cc4F)n3)cc2F)nc2ccc(C(=O)O)cc21 .
0.126

Fill blank: measured EC50 of the compound COC[C@H]1COC[C@H]1n1c(Cc2cc(F)c(-c3ccc(F)c(OCc4ccc(C#N)cc4)n3)cc2F)nc2ccc(C(=O)O)cc21 is ____.
0.077

Find the recorded EC50 belonging to Cc1cc(Cc2nc3ccc(C(=O)O)cc3n2[C@@H]2COCC2(C)C)c(F)cc1-c1cccc(OCc2ccc(Cl)cc2F)n1 and report it.
0.165

EC50 lookup needed for COCCn1c(Cc2nc(N)c(-c3cccc(OCc4ccc(C#N)cc4F)n3)cc2F)nc2ccc(C(=O)O)cc21 , thanks.
45.6

Quick one: EC50 for CC1(C)COC[C@H]1n1c(Cc2cc(F)c(-c3cccc(OCc4ccc(Cl)cc4F)c3)cc2F)nc2ccc(C(=O)O)cc21 ?
0.302

For CC1(C)COC[C@H]1n1c(Cc2cc(F)c(-c3cccc(OCc4ccc(F)cc4)n3)cc2F)nc2ccc(C(=O)O)cc21 , what is its reported EC50?
0.079

Which EC50 reading was recorded for the compound CC1(C)COC[C@H]1n1c(Cc2cc(F)c(-c3cccc(OCc4cc(F)c(F)cc4Cl)n3)cc2F)nc2ccc(C(=O)O)cc21 ?
0.477

Name the recorded EC50 for CC1(C)COC[C@@H]1n1c(Cc2cc(F)c(-c3cccc(OCc4ncc(Cl)cc4F)n3)cc2F)nc2ccc(C(=O)O)cc21 (single isomer, unassigned) [Example 289B] .
0.931

###

Molecular target: GLP-1R (Homo sapiens, UniProt P43220)
Sequence (P43220 24-463): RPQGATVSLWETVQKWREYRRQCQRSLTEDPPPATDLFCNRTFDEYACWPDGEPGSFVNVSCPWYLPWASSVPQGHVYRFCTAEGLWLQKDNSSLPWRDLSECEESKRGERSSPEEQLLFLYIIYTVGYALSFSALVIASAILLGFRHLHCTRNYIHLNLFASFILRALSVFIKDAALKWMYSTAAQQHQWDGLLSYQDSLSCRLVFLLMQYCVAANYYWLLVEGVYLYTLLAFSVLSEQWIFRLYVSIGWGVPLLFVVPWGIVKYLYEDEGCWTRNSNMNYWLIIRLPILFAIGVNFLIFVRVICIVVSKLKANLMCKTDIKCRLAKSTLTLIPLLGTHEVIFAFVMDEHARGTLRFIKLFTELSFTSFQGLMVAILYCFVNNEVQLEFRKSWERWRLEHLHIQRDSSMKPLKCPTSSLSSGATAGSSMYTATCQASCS
Assay: GLP-1R Activation - cAMP Assay
Assay type: cell-based
Details: cAMP increase in CHO cells stably expressing GLP-1R; each compound run on one of the two cAMP assays (Assay 1 or Assay 2, not specified)
Protocol: GLP-1R Activation—cAMP Assay 1 GLP-1R activation by compounds of the present disclosure were quantified by measuring cAMP increase in CHO cells stably expressing GLP-1R (MultiSpan product #C1267-1a). […] The tested GLP-1 compound was added to the cells in a 10-point dose response followed by a 30 minutes incubation at 37° C., 5% CO2. cAMP concentration increase was then detected using Cisbio's cAMP Gs Dynamic Kit (product #62AM4PEC) according to the manufacturer's protocol. […]
measure.name: pEC50
// pEC50: -log10(molar conc.)

Please look up its pEC50: CC1(C)COC[C@H]1n1c(Cc2cc(F)c(-c3cccc(OCc4ccc(Cl)cc4F)n3)cc2F)nc2cc(F)c(C(=O)O)cc21
9.72

# lookup: pEC50 of CO[C@]1(C)COC[C@H]1n1c(Cc2cc(F)c(-c3cccc(OCc4ccc(C#N)cc4F)n3)cc2F)nc2ccc(C(=O)O)cc21 (single isomer, unassigned)
9.40

Return reported pEC50; argument: COc1cc(Cl)ncc1COc1nc(-c2cc(F)c(Cc3nc4c(F)cc(C(=O)O)cc4n3[C@@H]3COCC3(C)C)cc2F)ccc1F
11.30

Report pEC50 for COCCn1c(C(F)c2cc(F)c(-c3cccc(OCc4ccc(C#N)cc4F)n3)cc2F)nc2ccc(C(=O)O)cc21 (stereo not drawn) please.
9.08

Query: pEC50; subject: CC1(C)COCC1n1c(Cc2cc(F)c(-c3cccc(OCc4ccc(Cl)cc4)n3)cc2F)nc2ccc(C(=O)O)cc21 (stereo not drawn)
10.37

Please look up its pEC50: CC1(C)COC[C@H]1n1c(Cc2c(F)cc(-c3ccc(F)c(OCc4ccc(Cl)cc4F)n3)cc2F)nc2c(F)cc(C(=O)O)cc21
9.91

###

Molecular target: GLP-1R (Homo sapiens, UniProt P43220)
Assay: GLP-1R Activation - cAMP Assay
Type: cell-based
Settings: cAMP increase in CHO cells stably expressing GLP-1R; each compound run on one of the two cAMP assays (Assay 1 or Assay 2, not specified)
For each entry below, report its pEC50 value.
The read-out pEC50 is expressed as -log10 of concentration in moles per litre.

Please report the recorded pEC50 for CC1(C)COC[C@H]1n1c(Cc2ccc(-c3ccc(F)c(OCc4ccc(C#N)cc4F)n3)c(F)c2)nc2ccc(C(=O)O)cc21 .
9.44

GET /values?readout=pEC50&item= N#Cc1ccc(COc2cccc(-c3cc(F)c(Cc4nc5ccc(C(=O)O)cc5n4[C@H]4CCOC4)cc3F)n2)c(F)c1
8.95

For the molecule Cc1cc(Cc2nc3c(F)cc(C(=O)O)cc3n2[C@@H]2COCC2(C)C)c(F)cc1-c1cccc(OCc2ccc(C#N)cc2F)n1 , what pEC50 is on record?
9.60

Which pEC50 value is on record for CC1(C)COCC1n1c(Cc2cc(F)c(-c3ccnc(OCc4ccc(C(F)(F)F)cc4F)n3)cc2F)nc2c(F)cc(C(=O)O)cc21 (stereo not shown) ?
9.29

Fill in the blank: the reported pEC50 of Cc1cc(Cc2nc3c(F)cc(C(=O)O)cc3n2[C@@H]2COCC2(C)C)c(Cl)cc1-c1ccnc(OCc2ccc(Cl)cc2)n1 is ____.
9.42

Quick one: pEC50 of COCCOCCOCCn1cc(-c2ccc(COc3cccc(-c4cc(F)c(Cc5nc6ccc(C(=O)O)cc6n5CCOC)cc4F)n3)c(F)c2)cn1 ?
8.84

I would be grateful if you could share the reported pEC50 for O=C(O)c1ccc2nc(Cc3cc(F)c(-c4cccc(OCc5cnc(-n6ccnn6)cc5Cl)n4)cc3F)n(CCOC3CC3)c2c1 .
9.68

Sample CC1(C)COC[C@H]1n1c(Cc2cc(F)c(-c3cccc(OCc4ccc(-n5cncn5)cc4)n3)cc2F)nc2ccc(C(=O)O)cc21 — what was its pEC50?
9.45

What value of pEC50 has been reported for the following molecule? Cc1cc(Cc2nc3ccc(C(=O)O)cc3n2[C@@H]2COCC2(C)C)c(F)cc1-c1ccnc(OCc2ccc(Cl)cc2F)n1
9.87

Any idea what its pEC50 is? The molecule is CC1(C)COCC1n1c(Cc2cc(F)c(-c3ccnc(OCc4ccc(C(F)F)cc4F)n3)cc2F)nc2c(F)cc(C(=O)O)cc21 (stereo not shown)
9.83

What value of pEC50 has been recorded for this entry: N#Cc1ccc(COc2cccc(-c3cc(F)c(Cc4nc5ccc(C(=O)O)cc5n4[C@@H]4COC[C@@H]4OC4CC4)cc3F)n2)c(F)c1 (racemic)
8.88

Any idea what its pEC50 is? The molecule is CC1(C)COC[C@H]1n1c(Cc2cc(F)c(-c3ccc(F)c(OCc4ccc(C(F)(F)F)cc4)n3)cc2F)nc2ccc(C(=O)O)cc21
10.08

Using the record for CO[C@@H]1CCOC[C@@H]1n1c(Cc2cc(F)c(-c3cccc(OCc4ccc(C#N)cc4F)n3)cc2F)nc2ccc(C(=O)O)cc21 (single isomer, unassigned) , report its pEC50.
9.20

###

Biological target: GLP-1R (Homo sapiens, UniProt P43220)
Test: GLP-1R Activation - cAMP Assay
Format: cell-based
Conditions: […]; each compound run on one of the two cAMP assays (Assay 1 or Assay 2, not specified)
measure.name: pEC50
A value of pEC50 is the negative decimal logarithm of a concentration given in moles per litre.

// pEC50 lookup, key: CO[C@H]1CN(C(C)=O)C[C@@H]1n1c(Cc2cc(F)c(-c3cccc(OCc4ccc(C#N)cc4F)n3)cc2F)nc2ccc(C(=O)O)cc21
5.32

Looking for the measured pEC50 of CC(=O)N1C[C@@H](F)[C@H](n2c(Cc3cc(F)c(-c4cccc(OCc5ccc(C#N)cc5F)n4)cc3F)nc3ccc(C(=O)O)cc32)C1 , can you help?
6.81

I am curious: what pEC50 value has been reported for CC(=O)N1[C@@H](Cn2c(Cc3cc(F)c(-c4cccc(OCc5ccc(C#N)cc5F)n4)cc3F)nc3ccc(C(=O)O)cc32)C[C@H]2C[C@H]21 ?
10.20

Look at this molecule and give its reported pEC50. CC(=O)N1C[C@@H](n2c(Cc3cc(F)c(-c4cccc(OCc5ccc(C#N)cc5F)n4)cc3F)nc3ccc(C(=O)O)cc32)C2(CC2)C1
7.15

Any idea what its pEC50 is? The molecule is COC(=O)N1C[C@@H](n2c(Cc3cc(F)c(-c4cccc(OCc5ccc(C#N)cc5F)n4)cc3F)nc3ccc(C(=O)O)cc32)[C@H](OC)C1
6.85

Could you share which pEC50 value was measured for CO[C@@H]1CN(S(C)(=O)=O)C[C@@H]1n1c(Cc2cc(F)c(-c3cccc(OCc4ccc(C#N)cc4F)n3)cc2F)nc2ccc(C(=O)O)cc21 ?
7.81

Value lookup for pEC50; key = N#Cc1ccc(COc2cccc(-c3cc(F)c(Cc4nc5ccc(C(=O)O)cc5n4[C@@H]4CNC(=O)C4)cc3F)n2)c(F)c1
6.81

Dear colleague, I am looking for the recorded pEC50 of the following molecule: COC(=O)N1C[C@@H](OC)[C@@H](n2c(Cc3cc(F)c(-c4cccc(OCc5ccc(C#N)cc5F)n4)cc3F)nc3ccc(C(=O)O)cc32)C1
7.65
